test_method_notes: in vivo
measurement_parameters: BALB/c nude, mouse, in vivo, iv, total radioactivity, T/St Tumor/Stomach ratio
Measured tissue to tissue ratio at 24 h, listed per entry for reference.
Would you mind answering with just the numeric figure?

C[C@@H](O)[C@H](NC(=O)[C@@H]1CSSC[C@H](NC(=O)[C@@H](Cc2ccccc2)NC(=O)[C@H](CCCCNC(=O)c2cccc(NC(=O)N[C@@H]3CN(C4CCCCC4)c4ccccc4N(CC(=O)C(C)(C)C)C3=O)c2)NC(=O)COCCOCCNC(=O)CN2CCN(CC(=O)O)CCN(CC(=O)O)CCN(CC(=O)O)CC2)C(=O)N[C@@H](Cc2ccc(O)cc2)C(=O)N[C@H](Cc2c[nH]c3ccccc23)C(=O)N[C@@H](CCCCN)C(=O)N[C@@H]([C@@H](C)O)C(=O)N1)C(=O)O [Compound I-35, DOTA-OEG-K(Z360)-f[CYwKTC]T-OH]; 5.8

# input for lookup
Value of tissue to tissue ratio at 24 h reported for the compound C[C@@H](O)[C@H](NC(=O)[C@@H]1CSSC[C@H](NC(=O)[C@@H](Cc2ccccc2)NC(=O)[C@H](CCCCNC(=O)c2cccc(NC(=O)N[C@@H]3CN(C4CCCCC4)c4ccccc4N(CC(=O)C(C)(C)C)C3=O)c2)NC(=O)CCOCCOCCOCCNC(=O)CN2CCN(CC(=O)O)CCN(CC(=O)O)CCN(CC(=O)O)CC2)C(=O)N[C@@H](Cc2ccc(O)cc2)C(=O)N[C@H](Cc2c[nH]c3ccccc23)C(=O)N[C@@H](CCCCN)C(=O)N[C@@H]([C@@H](C)O)C(=O)N1)C(=O)O [Compound I-48, DOTA-PEG3-K(Z360)-f[CYwKTC]T-OH] is 4

* * *

test_method_notes: in vivo
measurement_parameters: BALB/c nude, mouse, in vivo, iv, total radioactivity, uptake Kidney
observable: tissue uptake at 24 h (%ID/g)
Report only the number, with the unit %ID/g understood.

Some solved entries appear below for comparison.
C[C@@H](O)[C@H](NC(=O)[C@@H]1CSSC[C@H](NC(=O)[C@@H](Cc2ccccc2)NC(=O)CCOCCOCCOCCOCCOCCOCCNC(=O)[C@H](CCCCNC(=O)c2cccc(NC(=O)N[C@@H]3CN(C4CCCCC4)c4ccccc4N(CC(=O)C(C)(C)C)C3=O)c2)NC(=O)CN2CCN(CC(=O)O)CCN(CC(=O)O)CCN(CC(=O)O)CC2)C(=O)N[C@@H](Cc2ccc(O)cc2)C(=O)N[C@H](Cc2c[nH]c3ccccc23)C(=O)N[C@@H](CCCCN)C(=O)N[C@@H]([C@@H](C)O)C(=O)N1)C(=O)O [Compound I-40, DOTA-K(Z360)-PEG6-f[CYwKTC]T-OH]; 8.9
C[C@@H](O)[C@H](NC(=O)[C@@H]1CSSC[C@H](NC(=O)[C@@H](Cc2ccccc2)NC(=O)[C@H](CCCCNC(=O)CC[C@H](NC(=O)CNC(=O)c2cccc(NC(=O)N[C@@H]3CN(C4CCCCC4)c4ccccc4N(CC(=O)C(C)(C)C)C3=O)c2)C(=O)O)NC(=O)COCCOCCNC(=O)CCC(C(=O)O)N2CCN(CC(=O)O)CCN(CC(=O)O)CCN(CC(=O)O)CC2)C(=O)N[C@@H](Cc2ccc(O)cc2)C(=O)N[C@H](Cc2c[nH]c3ccccc23)C(=O)N[C@@H](CCCCN)C(=O)N[C@@H]([C@@H](C)O)C(=O)N1)C(=O)O (stereo partly shown); 51.6
C[C@@H](O)[C@H](NC(=O)[C@@H]1CSSC[C@H](NC(=O)[C@@H](Cc2ccccc2)NC(=O)[C@H](CCCCNC(=O)c2cccc(NC(=O)N[C@@H]3CN(C4CCCCC4)c4ccccc4N(CC(=O)C(C)(C)C)C3=O)c2)NC(=O)COCCOCCNC(=O)COCCOCCNC(=O)CN2CCN(CC(=O)O)CCN(CC(=O)O)CCN(CC(=O)O)CC2)C(=O)N[C@@H](Cc2ccc(O)cc2)C(=O)N[C@H](Cc2c[nH]c3ccccc23)C(=O)N[C@@H](CCCCN)C(=O)N[C@@H]([C@@H](C)O)C(=O)N1)C(=O)O [Compound I-41, DOTA-OEG-OEG-K(Z360)-f[CYwKTC]T-OH]; 9.7

# input for lookup
Value of tissue uptake at 24 h reported for the compound C[C@@H](O)[C@H](NC(=O)[C@@H]1CSSC[C@H](NC(=O)[C@@H](Cc2ccccc2)NC(=O)[C@H](CCCCNC(=O)COCCOCCNC(=O)COCCOCCNC(=O)c2cccc(NC(=O)N[C@@H]3CN(C4CCCCC4)c4ccccc4N(CC(=O)C(C)(C)C)C3=O)c2)NC(=O)CN2CCN(CC(=O)O)CCN(CC(=O)O)CCN(CC(=O)O)CC2)C(=O)N[C@@H](Cc2ccc(O)cc2)C(=O)N[C@H](Cc2c[nH]c3ccccc23)C(=O)N[C@@H](CCCCN)C(=O)N[C@@H]([C@@H](C)O)C(=O)N1)C(=O)O [Compound I-42, DOTA-K(-OEG-OEG-Z360)-f]CYwKTC]T-OH] is 17.8

* * *

test_method_notes: in vivo
measurement_parameters: BALB/c nude, mouse, in vivo, iv, total radioactivity, uptake Tumor
# tissue uptake at 24 h >= 20 %ID/g gives t, anything below gives f

The following molecules have reported results that may help.
C[C@@H](O)[C@H](NC(=O)[C@@H]1CSSC[C@H](NC(=O)[C@@H](Cc2ccccc2)NC(=O)[C@H](CCCCNC(=O)c2cccc(NC(=O)N[C@@H]3CN(C4CCCCC4)c4ccccc4N(CC(=O)C(C)(C)C)C3=O)c2)NC(=O)COCCOCCNC(=O)CN2CCN(CC(=O)O)CCN(CC(=O)O)CCN(CC(=O)O)CC2)C(=O)N[C@@H](Cc2ccc(O)cc2)C(=O)N[C@H](Cc2c[nH]c3ccccc23)C(=O)N[C@@H](CCCCN)C(=O)N[C@@H]([C@@H](C)O)C(=O)N1)C(=O)O [Compound I-35, DOTA-OEG-K(Z360)-f[CYwKTC]T-OH]; f
C[C@@H](O)[C@H](NC(=O)[C@@H]1CSSC[C@H](NC(=O)[C@@H](Cc2ccccc2)NC(=O)[C@H](CCCCNC(=O)COCCOCCNC(=O)COCCOCCNC(=O)c2cccc(NC(=O)N[C@@H]3CN(C4CCCCC4)c4ccccc4N(CC(=O)C(C)(C)C)C3=O)c2)NC(=O)CN2CCN(CC(=O)O)CCN(CC(=O)O)CCN(CC(=O)O)CC2)C(=O)N[C@@H](Cc2ccc(O)cc2)C(=O)N[C@H](Cc2c[nH]c3ccccc23)C(=O)N[C@@H](CCCCN)C(=O)N[C@@H]([C@@H](C)O)C(=O)N1)C(=O)O [Compound I-42, DOTA-K(-OEG-OEG-Z360)-f]CYwKTC]T-OH]; f
C[C@@H](O)[C@H](NC(=O)[C@@H]1CSSC[C@H](NC(=O)[C@@H](Cc2ccccc2)NC(=O)[C@H](CCCCNC(=O)c2cccc(NC(=O)N[C@@H]3CN(C4CCCCC4)c4ccccc4N(CC(=O)C(C)(C)C)C3=O)c2)NC(=O)COCCOCCNC(=O)COCCOCCNC(=O)CN2CCN(CC(=O)O)CCN(CC(=O)O)CCN(CC(=O)O)CC2)C(=O)N[C@@H](Cc2ccc(O)cc2)C(=O)N[C@H](Cc2c[nH]c3ccccc23)C(=O)N[C@@H](CCCCN)C(=O)N[C@@H]([C@@H](C)O)C(=O)N1)C(=O)O [Compound I-41, DOTA-OEG-OEG-K(Z360)-f[CYwKTC]T-OH]; f
C[C@@H](O)[C@H](NC(=O)[C@@H]1CSSC[C@H](NC(=O)[C@@H](Cc2ccccc2)NC(=O)CNC(=O)COCCOCCNC(=O)[C@H](CCCCNC(=O)c2cccc(NC(=O)N[C@@H]3CN(C4CCCCC4)c4ccccc4N(CC(=O)C(C)(C)C)C3=O)c2)NC(=O)CN2CCN(CC(=O)O)CCN(CC(=O)O)CCN(CC(=O)O)CC2)C(=O)N[C@@H](Cc2ccc(O)cc2)C(=O)N[C@H](Cc2c[nH]c3ccccc23)C(=O)N[C@@H](CCCCN)C(=O)N[C@@H]([C@@H](C)O)C(=O)N1)C(=O)O [Compound I-53, DOTA-K(Z360)-OEG-G-f[CYwKTC]T-OH]; f

Q: Does C[C@@H](O)[C@H](NC(=O)[C@@H]1CSSC[C@H](NC(=O)[C@@H](Cc2ccccc2)NC(=O)[C@H](CCCCNC(=O)CC[C@H](NC(=O)CNC(=O)c2cccc(NC(=O)N[C@@H]3CN(C4CCCCC4)c4ccccc4N(CC(=O)C(C)(C)C)C3=O)c2)C(=O)O)NC(=O)COCCOCCNC(=O)CCC(C(=O)O)N2CCN(CC(=O)O)CCN(CC(=O)O)CCN(CC(=O)O)CC2)C(=O)N[C@@H](Cc2ccc(O)cc2)C(=O)N[C@H](Cc2c[nH]c3ccccc23)C(=O)N[C@@H](CCCCN)C(=O)N[C@@H]([C@@H](C)O)C(=O)N1)C(=O)O (some centres unmarked) [Compound I-19] have a reported tissue uptake at 24 h of at least 20 %ID/g?
A: t

Q: Does C[C@@H](O)[C@H](NC(=O)[C@@H]1CSSC[C@H](NC(=O)[C@@H](Cc2ccccc2)NC(=O)COCCOCCNC(=O)COCCOCCNC(=O)[C@H](CCCCNC(=O)c2cccc(NC(=O)N[C@@H]3CN(C4CCCCC4)c4ccccc4N(CC(=O)C(C)(C)C)C3=O)c2)NC(=O)CN2CCN(CC(=O)O)CCN(CC(=O)O)CCN(CC(=O)O)CC2)C(=O)N[C@@H](Cc2ccc(O)cc2)C(=O)N[C@H](Cc2c[nH]c3ccccc23)C(=O)N[C@@H](CCCCN)C(=O)N[C@@H]([C@@H](C)O)C(=O)N1)C(=O)O [Compound I-39, DOTA-K(Z360)-OEG-OEG-f[CYwKTC]T-OH] have a reported tissue uptake at 24 h of at least 20 %ID/g?
A: t

Q: Does C[C@@H](O)[C@H](NC(=O)[C@@H]1CSSC[C@H](NC(=O)[C@@H](Cc2ccccc2)NC(=O)CCCCCCCNC(=O)[C@H](CCCCNC(=O)c2cccc(NC(=O)N[C@@H]3CN(C4CCCCC4)c4ccccc4N(CC(=O)C(C)(C)C)C3=O)c2)NC(=O)CN2CCN(CC(=O)O)CCN(CC(=O)O)CCN(CC(=O)O)CC2)C(=O)N[C@@H](Cc2ccc(O)cc2)C(=O)N[C@H](Cc2c[nH]c3ccccc23)C(=O)N[C@@H](CCCCN)C(=O)N[C@@H]([C@@H](C)O)C(=O)N1)C(=O)O [Compound I-61, DOTA-K(Z360)-Aoc-f[CYwKTC]T-OH] have a reported tissue uptake at 24 h of at least 20 %ID/g?
A: f

Q: Does C[C@@H](O)[C@H](NC(=O)[C@@H]1CSSC[C@H](NC(=O)[C@@H](Cc2ccccc2)NC(=O)COCCOCCNC(=O)[C@H](CCCCNC(=O)CC[C@H](NC(=O)CNC(=O)c2cccc(NC(=O)N[C@@H]3CN(C4CCCCC4)c4ccccc4N(CC(=O)C(C)(C)C)C3=O)c2)C(=O)O)NC(=O)CN2CCN(CC(=O)O)CCN(CC(=O)O)CCN(CC(=O)O)CC2)C(=O)N[C@@H](Cc2ccc(O)cc2)C(=O)N[C@H](Cc2c[nH]c3ccccc23)C(=O)N[C@@H](CCCCN)C(=O)N[C@@H]([C@@H](C)O)C(=O)N1)C(=O)O [Compound I-1] have a reported tissue uptake at 24 h of at least 20 %ID/g?
A: f
